This listing pairs compounds with measured pIC50.
tested on: HeLa cells; test: CCK-8 anti-proliferation assay, HeLa; format: cell-based, human; conditions: CCK-8, 48 h, mean ± SD, three independent experiments
pIC50: −log10 of the molar value.

Solved entries (count: 2):
Compound | pIC50
CCOC(=O)C1(n2cnc3c(OC)ncnc32)CSCC1O (stereo not drawn) [7a] | < 4.30
CCOC(=O)C1(n2cnc3c(Br)ncnc32)CSCC1O (single isomer, unassigned) [3b] | < 4.30

Consider the additional compound presented here.
Input: Give the reported pIC50 for CCOC(=O)C1(n2cnc3c(OCC)ncnc32)CSCC1O (stereo not drawn) [6a] (system: HeLa cells).
Output: < 4.30

Hello, the source for this data is paper PMC12278645, in case you need it.
